Record form. Attribute: electrical conductivity. Fill in for each entry.
# applied_conditions: 283.15 K; 100 kPa; Liquid; Frequency=0.0006 MHz; Alternating current cell with electrodes
Answers are plain numbers, in S/m.

CCCC[N+](C)(C)CC.O=S(=O)([N-]S(=O)(=O)C(F)(F)F)C(F)(F)F = 0.082
CC[N+](C)(C)CCOC.O=S(=O)([N-]S(=O)(=O)C(F)(F)F)C(F)(F)F = 0.141
C[N+](CCO)(CCO)CCO.O=S(=O)([N-]S(=O)(=O)C(F)(F)F)C(F)(F)F = 0.01
CCCC[N+](CCO)(CCO)CCO.O=S(=O)([N-]S(=O)(=O)C(F)(F)F)C(F)(F)F = 0.004

Items follow; give electrical conductivity for each.
1. CC[N+](C)(C)CCCO.O=S(=O)([N-]S(=O)(=O)C(F)(F)F)C(F)(F)F
2. CC[N+](CCO)(CCO)CCO.O=S(=O)([N-]S(=O)(=O)C(F)(F)F)C(F)(F)F
3. CC[N+](C)(CCO)CCO.O=S(=O)([N-]S(=O)(=O)C(F)(F)F)C(F)(F)F

Ans:
1. 0.049
2. 0.007
3. 0.027

====

Record form. Attribute: mass density. Fill in for each entry.
# applied_conditions: 335.16 K; 100 kPa; Liquid; Vibrating tube method
Give bare numbers, in kg/m3.

Please review the following examples before continuing.
CC[N+](CCO)(CCO)CCO.O=S(=O)([N-]S(=O)(=O)C(F)(F)F)C(F)(F)F = 1497.4
CCCC[N+](CCO)(CCO)CCO.O=S(=O)([N-]S(=O)(=O)C(F)(F)F)C(F)(F)F = 1424.6
CC[N+](C)(CCO)CCO.O=S(=O)([N-]S(=O)(=O)C(F)(F)F)C(F)(F)F = 1482.3
CCCC[N+](C)(C)CC.O=S(=O)([N-]S(=O)(=O)C(F)(F)F)C(F)(F)F = 1339.5
CC[N+](C)(C)CCCO.O=S(=O)([N-]S(=O)(=O)C(F)(F)F)C(F)(F)F = 1431.3

Items follow; give mass density for each.
1. CC[N+](C)(C)CCOC.O=S(=O)([N-]S(=O)(=O)C(F)(F)F)C(F)(F)F
2. C[N+](CCO)(CCO)CCO.O=S(=O)([N-]S(=O)(=O)C(F)(F)F)C(F)(F)F

Ans:
[1396.7, 1533.6]

====

Record form. Attribute: mass density. Fill in for each entry.
# applied_conditions: 316.15 K; 100 kPa; Liquid; Vibrating tube method
Give bare numbers, in kg/m3.

CC[N+](C)(C)CCCO.O=S(=O)([N-]S(=O)(=O)C(F)(F)F)C(F)(F)F = 1447.7
CC[N+](C)(CCO)CCO.O=S(=O)([N-]S(=O)(=O)C(F)(F)F)C(F)(F)F = 1499
CCCC[N+](C)(C)CC.O=S(=O)([N-]S(=O)(=O)C(F)(F)F)C(F)(F)F = 1355.8

Items follow; give mass density for each.
1. CC[N+](CCO)(CCO)CCO.O=S(=O)([N-]S(=O)(=O)C(F)(F)F)C(F)(F)F
2. CC[N+](C)(C)CCOC.O=S(=O)([N-]S(=O)(=O)C(F)(F)F)C(F)(F)F
3. CCCC[N+](CCO)(CCO)CCO.O=S(=O)([N-]S(=O)(=O)C(F)(F)F)C(F)(F)F
4. C[N+](CCO)(CCO)CCO.O=S(=O)([N-]S(=O)(=O)C(F)(F)F)C(F)(F)F

Ans:
1514
1414.1
1441
1550.6

====

# applied_conditions: 292.15 K; 100 kPa; Liquid; Vibrating tube method
endpoint: mass density (kg/m3)
Give bare numbers, in kg/m3.

Please review the following examples before continuing.
CC[N+](C)(CCO)CCO.O=S(=O)([N-]S(=O)(=O)C(F)(F)F)C(F)(F)F = 1520.8
CCCC[N+](C)(C)CC.O=S(=O)([N-]S(=O)(=O)C(F)(F)F)C(F)(F)F = 1377
CC[N+](CCO)(CCO)CCO.O=S(=O)([N-]S(=O)(=O)C(F)(F)F)C(F)(F)F = 1535
CC[N+](C)(C)CCOC.O=S(=O)([N-]S(=O)(=O)C(F)(F)F)C(F)(F)F = 1436.7
C[N+](CCO)(CCO)CCO.O=S(=O)([N-]S(=O)(=O)C(F)(F)F)C(F)(F)F = 1572.2

Items follow; give mass density for each.
1. CC[N+](C)(C)CCCO.O=S(=O)([N-]S(=O)(=O)C(F)(F)F)C(F)(F)F
2. CCCC[N+](CCO)(CCO)CCO.O=S(=O)([N-]S(=O)(=O)C(F)(F)F)C(F)(F)F

Ans:
1. 1468.7
2. 1461.8

====

# applied_conditions: 318.15 K; 100 kPa; Liquid; Frequency=0.0006 MHz; Alternating current cell with electrodes
endpoint: electrical conductivity
Express your answer as a number followed by its unit.

Please review the following examples before continuing.
CC[N+](CCO)(CCO)CCO.O=S(=O)([N-]S(=O)(=O)C(F)(F)F)C(F)(F)F = 0.092 S/m
CCCC[N+](CCO)(CCO)CCO.O=S(=O)([N-]S(=O)(=O)C(F)(F)F)C(F)(F)F = 0.062 S/m
CC[N+](C)(C)CCCO.O=S(=O)([N-]S(=O)(=O)C(F)(F)F)C(F)(F)F = 0.309 S/m

Items follow; give electrical conductivity for each.
1. CC[N+](C)(C)CCOC.O=S(=O)([N-]S(=O)(=O)C(F)(F)F)C(F)(F)F
2. CC[N+](C)(CCO)CCO.O=S(=O)([N-]S(=O)(=O)C(F)(F)F)C(F)(F)F
3. C[N+](CCO)(CCO)CCO.O=S(=O)([N-]S(=O)(=O)C(F)(F)F)C(F)(F)F
4. CCCC[N+](C)(C)CC.O=S(=O)([N-]S(=O)(=O)C(F)(F)F)C(F)(F)F

Ans:
["0.57 S/m", "0.206 S/m", "0.117 S/m", "0.401 S/m"]

====

Record form. Attribute: mass density. Fill in for each entry.
# applied_conditions: 360.15 K; 100 kPa; Liquid; Vibrating tube method
One number for each entry, in kg/m3.

Please review the following examples before continuing.
CC[N+](CCO)(CCO)CCO.O=S(=O)([N-]S(=O)(=O)C(F)(F)F)C(F)(F)F = 1476.2
CC[N+](C)(C)CCOC.O=S(=O)([N-]S(=O)(=O)C(F)(F)F)C(F)(F)F = 1374.2
CC[N+](C)(CCO)CCO.O=S(=O)([N-]S(=O)(=O)C(F)(F)F)C(F)(F)F = 1460.9

Items follow; give mass density for each.
1. CC[N+](C)(C)CCCO.O=S(=O)([N-]S(=O)(=O)C(F)(F)F)C(F)(F)F
2. C[N+](CCO)(CCO)CCO.O=S(=O)([N-]S(=O)(=O)C(F)(F)F)C(F)(F)F
3. CCCC[N+](C)(C)CC.O=S(=O)([N-]S(=O)(=O)C(F)(F)F)C(F)(F)F
4. CCCC[N+](CCO)(CCO)CCO.O=S(=O)([N-]S(=O)(=O)C(F)(F)F)C(F)(F)F

Ans:
[1410, 1511.9, 1318.3, 1403.6]

====

Record form. Attribute: mass density. Fill in for each entry.
# applied_conditions: 318.15 K; 100 kPa; Liquid; Vibrating tube method
Numbers only, in kg/m3.

CC[N+](C)(CCO)CCO.O=S(=O)([N-]S(=O)(=O)C(F)(F)F)C(F)(F)F = 1497.2
CCCC[N+](C)(C)CC.O=S(=O)([N-]S(=O)(=O)C(F)(F)F)C(F)(F)F = 1354.1
CC[N+](C)(C)CCCO.O=S(=O)([N-]S(=O)(=O)C(F)(F)F)C(F)(F)F = 1446

Items follow; give mass density for each.
1. CC[N+](CCO)(CCO)CCO.O=S(=O)([N-]S(=O)(=O)C(F)(F)F)C(F)(F)F
2. CC[N+](C)(C)CCOC.O=S(=O)([N-]S(=O)(=O)C(F)(F)F)C(F)(F)F

Ans:
[1512.2, 1412.3]

Items follow; give mass density for each.
1. C[N+](CCO)(CCO)CCO.O=S(=O)([N-]S(=O)(=O)C(F)(F)F)C(F)(F)F
2. CCCC[N+](CCO)(CCO)CCO.O=S(=O)([N-]S(=O)(=O)C(F)(F)F)C(F)(F)F

Ans:
1. 1548.8
2. 1439.3

====

# applied_conditions: 315.15 K; 100 kPa; Liquid; Vibrating tube method
endpoint: mass density (kg/m3)
Answers are plain numbers, in kg/m3.

CC[N+](CCO)(CCO)CCO.O=S(=O)([N-]S(=O)(=O)C(F)(F)F)C(F)(F)F = 1514.9
CCCC[N+](CCO)(CCO)CCO.O=S(=O)([N-]S(=O)(=O)C(F)(F)F)C(F)(F)F = 1441.9
C[N+](CCO)(CCO)CCO.O=S(=O)([N-]S(=O)(=O)C(F)(F)F)C(F)(F)F = 1551.5
CC[N+](C)(CCO)CCO.O=S(=O)([N-]S(=O)(=O)C(F)(F)F)C(F)(F)F = 1499.9
CC[N+](C)(C)CCCO.O=S(=O)([N-]S(=O)(=O)C(F)(F)F)C(F)(F)F = 1448.6
CC[N+](C)(C)CCOC.O=S(=O)([N-]S(=O)(=O)C(F)(F)F)C(F)(F)F = 1415.1

For the next question, use this compound.
Q: Specify reported mass density for the compound shown: `CCCC[N+](C)(C)CC.O=S(=O)([N-]S(=O)(=O)C(F)(F)F)C(F)(F)F`
Ans: 1356.7
